- targetOfAssay: Human sodium/glucose co-transporter type 1 (SGLT1) (Homo sapiens (Human), UniProt P13866)
- Sequence (P13866 whole entry): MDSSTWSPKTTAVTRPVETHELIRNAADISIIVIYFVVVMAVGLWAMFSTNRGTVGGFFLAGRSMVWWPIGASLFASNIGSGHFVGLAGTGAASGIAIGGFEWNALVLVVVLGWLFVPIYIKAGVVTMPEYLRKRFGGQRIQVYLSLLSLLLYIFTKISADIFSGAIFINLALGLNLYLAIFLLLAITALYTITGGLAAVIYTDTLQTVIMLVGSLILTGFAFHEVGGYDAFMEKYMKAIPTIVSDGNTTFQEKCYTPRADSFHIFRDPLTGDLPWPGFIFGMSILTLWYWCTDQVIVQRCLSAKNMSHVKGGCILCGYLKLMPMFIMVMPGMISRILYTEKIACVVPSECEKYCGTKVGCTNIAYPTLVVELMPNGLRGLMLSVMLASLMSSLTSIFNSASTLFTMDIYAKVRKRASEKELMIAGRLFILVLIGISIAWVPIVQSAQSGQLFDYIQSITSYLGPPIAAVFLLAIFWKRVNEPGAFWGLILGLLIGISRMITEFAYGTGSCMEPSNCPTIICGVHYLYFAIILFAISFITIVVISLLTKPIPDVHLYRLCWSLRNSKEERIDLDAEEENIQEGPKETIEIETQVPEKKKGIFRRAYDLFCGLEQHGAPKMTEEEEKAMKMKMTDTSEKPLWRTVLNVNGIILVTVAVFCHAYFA
- methodDescription: In vitro human SGLT1 inhibition assay (14C-AMG uptake)
- experimentalContext: HEK293 cells expressing human HA-SGLT1, 14C-AMG uptake
pIC50: −log10 of the molar value.
recordedMetric: pIC50

Guide cases for pIC50, answers given:
*Q* For the compound "CS[C@H]1O[C@@H](c2ccc(C)c(Cc3ccc(CCCC(=O)NC(C)(C)C(=O)N4CCN(C)CC4)cc3)c2)[C@H](O)[C@@H](O)[C@@H]1O" , report pIC50.
*A* > 8.00

*Q* Give pIC50 for "CS[C@H]1O[C@@H](c2ccc(C)c(Cc3ccc(OCCCNCC(C)(C)C(N)=O)cc3)c2)[C@H](O)[C@@H](O)[C@@H]1O"
*A* > 8.00

*Q* Identify pIC50 associated with the compound "CS[C@H]1O[C@@H](c2ccc(C)c(Cc3ccc(OCCCC(=O)NC(C)(C)CO)cc3)c2)[C@H](O)[C@@H](O)[C@@H]1O"
*A* > 8.00

More entries:
*Q* Tell us which pIC50 value is on record for "CS[C@H]1O[C@@H](c2ccc(C)c(Cc3ccc(CCCC(=O)N4CCN(C)CC4)cc3)c2)[C@H](O)[C@@H](O)[C@@H]1O"
*A* > 7.00

*Q* Please give measured pIC50 of the following entry: "CS[C@H]1O[C@@H](c2ccc(C)c(Cc3ccc(CCCc4nnn(CC(=O)N5CCN(C)CC5)n4)cc3)c2)[C@H](O)[C@@H](O)[C@@H]1O"
*A* > 8.00
